- experiment.summary: In vitro microsomal stability assay
- Type: in vitro ADME
- condition.label: pH 7.4, bovine liver microsomes 1 mg/mL, 25 μM compound, 37° C., NADPH, read-out: Recovery (%) of compound after reaction with activated microsomes
measure.name: recovery at 30 min, 25 μM (%)
Give bare numbers, in %.

Worked cases, answers included:
> print(dat)
                              sample.smiles  quantitative.readout
1  CCCCCCCCCCCCCCCCc1nc(N2CCC2)nc(OC2CCC2)c1O                    65
2  CCCCCCCCCCCCCCc1nc(OC2CCC2)nc(OC2CCC2)c1O                    72
3  CCCCCCCCCCCCCCc1nc(OC2CCC2)nc(N2CCC2)c1O                    77

List reported recovery at 30 min, 25 μM for each of these molecules:
1. CCCCCCCCCCCCCCCCc1nc(OC2CCC2)nc(OC2CCC2)c1O
2. CCCCCCCCCCCCCCCCc1nc(OC2CCC2)nc(N2CCC2)c1O
3. CCCCCCCCCCCCCCc1nc(N2CCC2)nc(OC2CCC2)c1O
4. CCCCCCCCCCCCCCCCc1nc(N2CCC2)nc(N2CCC2)c1O
5. CCCCCCCCCCCCCCc1nc(N2CCC2)nc(N2CCC2)c1O

Data returned:
1. 60
2. 63
3. 63
4. 62
5. 63

* * *

- Test system: FRDA lymphocytes
- experiment.summary: Cellular ATP concentration assay (luciferin-luciferase)
- Assay type: cell-based, Human
- condition.label: Homo sapiens, Lymphocyte; 5 μM, incubation 48 h; read-out: Total ATP level (% control) FRDA lymphocytes
measure.name: activity at 5 µM (%)
Numbers only, in %.

Worked cases, answers included:
> print(dat)
                              sample.smiles  quantitative.readout
1                Cc1nc(N2CCC2)nc(N2CCC2)c1O                   101
2  CCCCCCCCCCCCCCc1nc(OC2CCC2)nc(N2CCC2)c1O                   105
3  CCCCCCCCCCCCCCCCc1nc(OC2CCC2)nc(OC2CCC2)c1O                   102
4  CCCCCCCCCCCCCCCCc1nc(N2CCC2)nc(OC2CCC2)c1O                   114
5  CCCCCCCCCCCCCCCCc1nc(OC2CCC2)nc(N2CCC2)c1O                   110

List reported activity at 5 µM for each of these molecules:
1. Cc1nc(N2CCC2)nc(OC2CCC2)c1O
2. CCCCCCCCCCCCCCc1nc(N2CCC2)nc(OC2CCC2)c1O
3. CCCCCCCCCCCCCCc1nc(OC2CCC2)nc(OC2CCC2)c1O

Data returned:
98
102
98

* * *

- System: FRDA lymphocytes
- experiment.summary: Cellular ATP concentration assay (luciferin-luciferase)
- Format: cell-based, Human
- condition.label: Homo sapiens, Lymphocyte; 20 μM, incubation 48 h; read-out: Total ATP level (% control) FRDA lymphocytes
measure.name: activity at 20 µM (%)
Numbers only, in %.

List reported activity at 20 µM for each of these molecules:
1. CCCCCCCCCCCCCCc1nc(N2CCC2)nc(N2CCC2)c1O
2. CCCCCCCCCCCCCCCCc1nc(N2CCC2)nc(OC2CCC2)c1O
3. Cc1nc(OC2CCC2)nc(N2CCC2)c1O
4. Cc1nc(N2CCC2)nc(OC2CCC2)c1O
5. Cc1nc(OC2CCC2)nc(OC2CCC2)c1O
6. Cc1nc(N2CCC2)nc(N2CCC2)c1O

Data returned:
1: 1; 2: 103; 3: 96; 4: 96; 5: 97; 6: 85

List reported activity at 20 µM for each of these molecules:
1. CCCCCCCCCCCCCCCCc1nc(OC2CCC2)nc(N2CCC2)c1O
2. CCCCCCCCCCCCCCCCc1nc(OC2CCC2)nc(OC2CCC2)c1O
3. CCCCCCCCCCCCCCc1nc(OC2CCC2)nc(N2CCC2)c1O
4. CCCCCCCCCCCCCCc1nc(N2CCC2)nc(OC2CCC2)c1O
5. CCCCCCCCCCCCCCCCc1nc(N2CCC2)nc(N2CCC2)c1O
6. CCCCCCCCCCCCCCc1nc(OC2CCC2)nc(OC2CCC2)c1O

Data returned:
[99, 96, 54, 94, 1, 94]

* * *

- System: FRDA lymphocytes
- experiment.summary: Cellular ATP concentration assay (luciferin-luciferase)
- Type: cell-based, Human
- condition.label: Homo sapiens, Lymphocyte; 5 μM, incubation 48 h; read-out: Total ATP level (% control) FRDA lymphocytes
Assignment: determine reported activity at 5 µM for the given compounds.
One number for each entry, in %.

List reported activity at 5 µM for each of these compounds:
1. Cc1nc(OC2CCC2)nc(OC2CCC2)c1O
2. CCCCCCCCCCCCCCc1nc(N2CCC2)nc(N2CCC2)c1O
3. CCCCCCCCCCCCCCCCc1nc(N2CCC2)nc(N2CCC2)c1O
4. Cc1nc(OC2CCC2)nc(N2CCC2)c1O

Data returned:
1. 99
2. 46
3. 61
4. 99
